species: Rattus norvegicus; assay: Open TG-GATES - Regimen: Daily Repeat; format: toxicity, organism-based, Sprague-Dawley; design: regimen Daily Repeat, gender Male, age 6 weeks; settings: in vivo, po, 1000 mg/kg, […], tissue Plasma, route gavage, dose level High, time 14 day
Classify by measured TC: true if it is equal to or exceeds 70 mg/dL, false if it is smaller.

Check out these entries, answers already filled in.
COC(=O)C1=C(C)NC(C)=C(C(=O)OC)C1c1ccccc1[N+](=O)[O-]
true
CCOc1ccc(NC(C)=O)cc1
true
CNC(=C[N+](=O)[O-])NCCSCc1ccc(CN(C)C)o1
false
Cc1nnc2n1-c1ccc(Cl)cc1C(c1ccccc1Cl)=NC2
true

(Q) hey, is TC for this one >= 70 mg/dL? `CN/C(=N/CCSCc1nc[nH]c1C)NC#N`
(A) true
